- System: THP-1
- measurementNotes: Cytotoxicity against human THP1 cells by MTT assay
- Type: functional, cell-based
measuredAttribute: IC50

molecule	IC50
CC1=CC(=O)[C@]23O[C@](C)(C=C2C1=O)CC[C@H]1[C@@H](C[C@H]3C)C1(C)C	45.6 µM

Then this molecule:
Lab request: please report IC50 under test system THP-1 for COc1cc([C@@H]2c3cc4c(cc3[C@@H](O[C@@H]3O[C@@H]5CO[C@@H](C)O[C@H]5[C@H](O)[C@H]3O)[C@H]3COC(=O)[C@H]23)OCO4)cc(OC)c1O [ETOPOSIDE]
2.16 µM
